Reported binding signal values follow for various sequences
- tgt: OsWRKY34 (Oryza sativa, UniProt Q0JBA9 1-250)
- Sequence (Q0JBA9 entry or part of it): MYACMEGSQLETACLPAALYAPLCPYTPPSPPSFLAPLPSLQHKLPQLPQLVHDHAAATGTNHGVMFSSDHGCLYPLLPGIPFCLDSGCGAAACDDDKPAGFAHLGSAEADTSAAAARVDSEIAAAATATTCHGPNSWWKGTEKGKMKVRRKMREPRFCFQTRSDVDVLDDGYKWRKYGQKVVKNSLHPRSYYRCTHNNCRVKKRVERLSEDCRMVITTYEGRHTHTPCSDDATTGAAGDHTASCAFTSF
- test description: protein-binding microarray (RPBM); PBS, 2% BSA, 51.3 ng/ul salmon testes DNA, 50 uM zinc acetate, 200 nM TF, 25 C, 1 h; high values mean tight binding
- study conditions: protein: recombinant; tags: N-terminal polyhistidine and DsRed monomer fusion (pET32a); label: CyDye5-dUTP incorporated in the synthesized complementary strand; 3' TTTTT single-stranded linker to array surface; dsDNA, one strand shown
Whole data set: some 68,000 sequences, median “fluorescence intensity (a.u.)” near 9,100, cut for the highest 2% near 16,000. The entries come from a sample that favours the highest values as a whole.

Please review the following examples before continuing.
[[record]]
sequence_content = "CCTTCACCTCCTTGCAAGTTCCATTCTTTCATCTCGCTTCCGGAGTCACCTAGTGCAG"
observed_value = "16500 fluorescence intensity (a.u.)"

[[record]]
sequence_content = "CTAGCTTCGCCATCCACATTCTTCTTGCTTCTTGCTCCTCCGGAGTCACCTAGTGCAG"
observed_value = "12700 fluorescence intensity (a.u.)"


Attention now turns to another entry.
Entry TGTTTGACGCCGTTGACTTTTTTAAACATGTTTGACCATTCGGAGTCACCTAGTGCAG , OsWRKY34 (Oryza sativa, UniProt Q0JBA9 1-250) data, binding signal value: 34200 fluorescence intensity (a.u.)

* * *

- tgt: OsWRKY34 (Oryza sativa, UniProt Q0JBA9 1-250)
- test description: protein-binding microarray (RPBM); PBS, 2% BSA, 51.3 ng/ul salmon testes DNA, 50 uM zinc acetate, 200 nM TF, 25 C, 1 h; high values mean tight binding
- study conditions: protein: recombinant; tags: N-terminal polyhistidine and DsRed monomer fusion (pET32a); label: CyDye5-dUTP incorporated in the synthesized complementary strand; 3' TTTTT single-stranded linker to array surface; dsDNA, one strand shown
Over roughly 68,000 sequences, “fluorescence intensity (a.u.)” has its median near 9,100; the highest 2% begin near 16,000. This is one part of a sample in which the highest values are shown more often than they occur.
Reported binding signal values follow for various sequences

[[record]]
sequence_content = "GATTTGTATTGGTTTTAATAGTAGGGGAATTTCTATACCTCGGAGTCACCTAGTGCAG"
observed_value = "8140 fluorescence intensity (a.u.)"

[[record]]
sequence_content = "ATATTTCCTGTTTGCTCTGTGTTTTCTTCCACCTTCCATTCGGAGTCACCTAGTGCAG"
observed_value = "9830 fluorescence intensity (a.u.)"


Attention now turns to another entry.
The sequence listed as TACTGCAACTCTGCAAGCACATTGATCAATCGATCAATCCCGGAGTCACCTAGTGCAG has a reported binding signal of 8450 fluorescence intensity (a.u.)

* * *

Reported binding signal values follow for various sequences
- tgt: OsWRKY34 (Oryza sativa, UniProt Q0JBA9 1-250)
- test description: protein-binding microarray (RPBM); PBS, 2% BSA, 51.3 ng/ul salmon testes DNA, 50 uM zinc acetate, 200 nM TF, 25 C, 1 h; high values mean tight binding
- study conditions: protein: recombinant; tags: N-terminal polyhistidine and DsRed monomer fusion (pET32a); label: CyDye5-dUTP incorporated in the synthesized complementary strand; 3' TTTTT single-stranded linker to array surface; dsDNA, one strand shown
Whole data set: some 68,000 sequences, median “fluorescence intensity (a.u.)” near 9,100, cut for the highest 2% near 16,000. The sample holds the highest values, similar sequences and a random draw of the others, so the mix is not that of the screen.

Please review the following examples before continuing.
[[record]]
sequence_content = "CTTGGTTTTCTTGATTTCTTGGGTTCTTGGCTACTGGGGCCGGAGTCACCTAGTGCAG"
observed_value = "9490 fluorescence intensity (a.u.)"

[[record]]
sequence_content = "ATACTGAGAAAGTGCCAAGTTTTTGTCTGCTTCATGTAACCGGAGTCACCTAGTGCAG"
observed_value = "8110 fluorescence intensity (a.u.)"

[[record]]
sequence_content = "GGCTTCAGTATGAATTCTTACACAACCGTTGGTGTGCTACCGGAGTCACCTAGTGCAG"
observed_value = "9250 fluorescence intensity (a.u.)"

[[record]]
sequence_content = "GGGAAGGGGAGGGGTGGGCGGAAGGGGACGCCGGTGGTGGCGGAGTCACCTAGTGCAG"
observed_value = "17900 fluorescence intensity (a.u.)"

[[record]]
sequence_content = "CGTGGTAATTTTTATTGGTAAGTGGTGGTGAAGTGGGTGACGGAGTCACCTAGTGCAG"
observed_value = "8300 fluorescence intensity (a.u.)"

[[record]]
sequence_content = "ATATTATAAGTTGTTTTGACTTTTTGCTAGTCAAACTTATCGGAGTCACCTAGTGCAG"
observed_value = "14200 fluorescence intensity (a.u.)"


The sequence listed as ATTTTTTTTCTAGTCAAACTTTGTTAAGTTTGACCAAAATCGGAGTCACCTAGTGCAG has a reported binding signal of 9790 fluorescence intensity (a.u.)

The sequence listed as GGTGGTGCGCGAGCGTCGGCGGTCGGCGGGAGGGCGGGAGCGGAGTCACCTAGTGCAG has a reported binding signal of 9180 fluorescence intensity (a.u.)

The sequence listed as CCTCACCCTATGCTCCTGTGTTTTGTAGTCTTTCGTAACACGGAGTCACCTAGTGCAG has a reported binding signal of 8220 fluorescence intensity (a.u.)

The sequence listed as AATGTGGGAGAAGGGGAGGAGAGAGGGGAGGGGAGGGGACCGGAGTCACCTAGTGCAG has a reported binding signal of 16500 fluorescence intensity (a.u.)

The sequence listed as AAATGTATTTATTTTTTTTCTACTCCCTCCGCCCCTTAATCGGAGTCACCTAGTGCAG has a reported binding signal of 8590 fluorescence intensity (a.u.)

The sequence listed as CTTTGGTCAAAGTCAAATTGTTTTAAGTTTGACCAAGTTTCGGAGTCACCTAGTGCAG has a reported binding signal of 19600 fluorescence intensity (a.u.)

The sequence listed as GGGTTCTTGGCTACTGGGGCTGTCTCTCTATCTTTCTTGACGGAGTCACCTAGTGCAG has a reported binding signal of 21600 fluorescence intensity (a.u.)

* * *

- tgt: OsWRKY34 (Oryza sativa, UniProt Q0JBA9 1-250)
- test description: protein-binding microarray (RPBM); PBS, 2% BSA, 51.3 ng/ul salmon testes DNA, 50 uM zinc acetate, 200 nM TF, 25 C, 1 h; high values mean tight binding
- study conditions: protein: recombinant; tags: N-terminal polyhistidine and DsRed monomer fusion (pET32a); label: CyDye5-dUTP incorporated in the synthesized complementary strand; 3' TTTTT single-stranded linker to array surface; dsDNA, one strand shown
The full ranking holds about 68,000 sequences; the median of “fluorescence intensity (a.u.)” is about 9,100, and the highest 2% start at about 16,000. Many of the other results were omitted from the sample, so the highest values are more common in it than they were.
property label: binding signal

[[record]]
sequence_content = "AATACTCCTCTACTCATATTAGTACAATATCACAAACTTACGGAGTCACCTAGTGCAG"
observed_value = "8250 fluorescence intensity (a.u.)"

[[record]]
sequence_content = "TTGGCGGTGGAGGCGGTGGTGGCTTTGGAGGAGACGGTGGCGGAGTCACCTAGTGCAG"
observed_value = "8650 fluorescence intensity (a.u.)"

[[record]]
sequence_content = "AGTCTTGAAGACTGAGGCAAAGTCTGTTATCTTAATCGATCGGAGTCACCTAGTGCAG"
observed_value = "9140 fluorescence intensity (a.u.)"

[[record]]
sequence_content = "TGGGAGGGTTTCTGATCATCAGCTGTCCTCTTTACCGGCACGGAGTCACCTAGTGCAG"
observed_value = "11300 fluorescence intensity (a.u.)"

[[record]]
sequence_content = "AAAAATATTTGACAGCGTTGACTTTTTAGTGCGTATTTGACGGAGTCACCTAGTGCAG"
observed_value = "42800 fluorescence intensity (a.u.)"


Entry CCCTCCTTCCCTTTTAGTGGGTCTGTTTTCTTGGAGCGCGCGGAGTCACCTAGTGCAG , OsWRKY34 (Oryza sativa, UniProt Q0JBA9 1-250) data, binding signal value: 8600 fluorescence intensity (a.u.)

Entry TTTTGCCATCTGGTAATCCCTCTACCACCAACAGCTACAACGGAGTCACCTAGTGCAG , OsWRKY34 (Oryza sativa, UniProt Q0JBA9 1-250) data, binding signal value: 9220 fluorescence intensity (a.u.)

Entry TAAGATAAACGGTCAAACATTTGCTAAAAAGTCAACGGTGCGGAGTCACCTAGTGCAG , OsWRKY34 (Oryza sativa, UniProt Q0JBA9 1-250) data, binding signal value: 17300 fluorescence intensity (a.u.)

Entry GCTCAGCCGCCGTCGCCAGTCCAACCTCCGCCACCGCGGCCGGAGTCACCTAGTGCAG , OsWRKY34 (Oryza sativa, UniProt Q0JBA9 1-250) data, binding signal value: 8640 fluorescence intensity (a.u.)

Entry TGGATGTCGCCGTCGGCGGGGTGGTGGGATTTGGAACTGGCGGAGTCACCTAGTGCAG , OsWRKY34 (Oryza sativa, UniProt Q0JBA9 1-250) data, binding signal value: 12500 fluorescence intensity (a.u.)

Entry TCTATCTGCCTGACTATCTCTATCTCGATCTCGTCCAGGACGGAGTCACCTAGTGCAG , OsWRKY34 (Oryza sativa, UniProt Q0JBA9 1-250) data, binding signal value: 9860 fluorescence intensity (a.u.)

Entry TTCAAAATATTTGACACCGTTGACTTTTTAGTACGTGTTTCGGAGTCACCTAGTGCAG , OsWRKY34 (Oryza sativa, UniProt Q0JBA9 1-250) data, binding signal value: 18200 fluorescence intensity (a.u.)

Entry TTAGGGGCGGTGGGTGGTTTTCGGCTGGGAAATCGCGGATCGGAGTCACCTAGTGCAG , OsWRKY34 (Oryza sativa, UniProt Q0JBA9 1-250) data, binding signal value: 11500 fluorescence intensity (a.u.)

Entry TGTACTTCAAAAATTTACTTTACCGTGTGTTTTATTTTTTCGGAGTCACCTAGTGCAG , OsWRKY34 (Oryza sativa, UniProt Q0JBA9 1-250) data, binding signal value: 9650 fluorescence intensity (a.u.)

Entry TGGCGGATTGATCTGGAGGTGGGCTTGTTGGGGTTGCTGTCGGAGTCACCTAGTGCAG , OsWRKY34 (Oryza sativa, UniProt Q0JBA9 1-250) data, binding signal value: 18200 fluorescence intensity (a.u.)

Entry GCACACGCTTCATGTTGACATTTTATCGAATCGTGTTCTGCGGAGTCACCTAGTGCAG , OsWRKY34 (Oryza sativa, UniProt Q0JBA9 1-250) data, binding signal value: 8350 fluorescence intensity (a.u.)

Entry ATCTCCAAAATCAGTTTAACATCGCCTAATCCACGTCGGTCGGAGTCACCTAGTGCAG , OsWRKY34 (Oryza sativa, UniProt Q0JBA9 1-250) data, binding signal value: 8820 fluorescence intensity (a.u.)

Entry CTCGAACCACTGACCATCCCGTCCACACTGCACCGCGCTACGGAGTCACCTAGTGCAG , OsWRKY34 (Oryza sativa, UniProt Q0JBA9 1-250) data, binding signal value: 8260 fluorescence intensity (a.u.)

Entry GACCATTATGTTAACTTGGATTAGGGGTAGGCTAGAGATTCGGAGTCACCTAGTGCAG , OsWRKY34 (Oryza sativa, UniProt Q0JBA9 1-250) data, binding signal value: 11000 fluorescence intensity (a.u.)

Entry AGTCTGGATTCTTGGAGGTCAACTTTGGTCAACGGTGGGGCGGAGTCACCTAGTGCAG , OsWRKY34 (Oryza sativa, UniProt Q0JBA9 1-250) data, binding signal value: 14200 fluorescence intensity (a.u.)

Entry CCTTCCCATGCTGCTGTGATGTGTCATACGCCGCCGCCACCGGAGTCACCTAGTGCAG , OsWRKY34 (Oryza sativa, UniProt Q0JBA9 1-250) data, binding signal value: 9920 fluorescence intensity (a.u.)

Entry GCAACGCCGCCGTTTTCTTCGCCTCTCACAGAGACGACTCCGGAGTCACCTAGTGCAG , OsWRKY34 (Oryza sativa, UniProt Q0JBA9 1-250) data, binding signal value: 9200 fluorescence intensity (a.u.)

Entry ATACTGTCATAGGATCTCGAGTACACCTGTTTTACAAGTTCGGAGTCACCTAGTGCAG , OsWRKY34 (Oryza sativa, UniProt Q0JBA9 1-250) data, binding signal value: 8860 fluorescence intensity (a.u.)

Recorded values, source paper PMC7819943.
